- targetEntity: NAD-dependent protein deacetylase sirtuin-2 (Homo sapiens)
- Sequence (Q8IXJ6 whole entry, the tested form may be a part): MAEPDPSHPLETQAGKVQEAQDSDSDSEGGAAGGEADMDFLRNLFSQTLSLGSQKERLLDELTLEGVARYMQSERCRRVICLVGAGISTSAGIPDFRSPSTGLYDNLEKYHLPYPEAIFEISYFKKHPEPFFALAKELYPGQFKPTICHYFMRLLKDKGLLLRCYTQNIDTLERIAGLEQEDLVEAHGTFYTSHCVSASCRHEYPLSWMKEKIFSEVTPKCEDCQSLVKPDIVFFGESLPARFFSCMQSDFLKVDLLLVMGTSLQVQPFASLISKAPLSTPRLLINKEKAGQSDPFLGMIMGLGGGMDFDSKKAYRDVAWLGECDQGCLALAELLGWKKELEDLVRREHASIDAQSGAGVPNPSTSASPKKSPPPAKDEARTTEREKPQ
- assaySummary: Inhibition of recombinant human C-terminal His-tagged SIRT2 (50 to 389 end residues) expressed in Escherichia coli using p53 derived (379 to 382 residues) fluorogenic peptide substrate RHKK(Ac)-AMC preincubated for 10 mins followed by substrate addition in presence of NAD+ by fluorescence assay
pIC50: −log10 of the molar value.

{"molecule": "O=c1c2c3c(sc2ncn1Cc1cccc2cccnc12)CC(NCC1CCCCC1)CC3 (stereo not given)", "pIC50": 5.61}
{"molecule": "O=c1c2c3c(sc2ncn1Cc1cccc2cccnc12)CC(NCc1ccccn1)CC3 (stereo not given)", "pIC50": 5.58}
{"molecule": "COc1ccc2ccccc2c1Cn1cnc2sc3c(c2c1=O)CCC(NC1CCCC1)C3 (stereo not given)", "pIC50": 5.93}
{"molecule": "O=c1c2c3c(sc2ncn1Cc1cccc2cccnc12)CC(NCCC1CCCCC1)CC3 (stereo not given)", "pIC50": 5.23}
{"molecule": "COc1ccc2ccccc2c1Cn1cnc2sc3c(c2c1=O)CCC(NCCc1ccncc1)C3 (stereo not given)", "pIC50": 5.56}
